Each recorded value in this set is attributed to PubChem BioAssay AID1159580.

Assay Comment: chemical genetic growth profiling, strain panel (AID 1159580);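 also: tested at 20 µM; growth read once vehicle control cultures reached saturation at 30 °C; 1 = growth at the plate median or of vehicle wells; lower values mean less growth of the strain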
Study Conditions: S. cerevisiae deletion strains, growth OD, locus YLR330W, strain CHS5
The campaign covered roughly 5,500 compounds. About 2,000 (36%) were called active. Not shown: some 18% with an inconclusive outcome. Rule as the data show it: active = normalized growth mostly below about 0.91 (no sharp cut-off); inconclusive = no clear call, values can overlap the other calls; inactive = mostly above about 0.92. Some of the results follow.
Permitted responses: true (1) = active, false (0) = inactive

The examples below pair each entry with its known result.
NS(=O)(=O)c1cc2c(cc1Cl)NCNS2(=O)=O = false (0)
O[C@H]1[C@H](O)[C@@H](O)C2OC[C@H]1O2 = false (0)
CCCCCC/C=C\CCCCCCCc1cccc(O)c1C(=O)O = false (0)
Cn1cnc2c1c(=O)[nH]c(=O)n2C = false (0)
CC(=O)Oc1c(C)c(C)c2c(c1C)CCC(C)(CCCC(C)CCCC(C)CCCC(C)C)O2 (centres undefined) = false (0)
NC(Cc1ccc(Cl)cc1)C(=O)O (centres undefined) = false (0)
CN1C(=O)CC[C@H]1c1cccnc1 = false (0)
O=c1c(O)cccc2cc(O)c(O)c(O)c12 = true (1)
CN1CCN(C2=Nc3cc(Cl)ccc3Nc3ccccc32)CC1 = false (0)
O=C1C(=O)c2ccccc2C(O)=C1C1CCC(c2ccc(Cl)cc2)CC1 (centres undefined) = false (0)

*Q* Outcome? CC(C)=CCC/C(C)=C/CO
*A* false (0)

*Q* Outcome? COC(=O)C[C@H]1C(C)(C)[C@@H](OC(C)=O)[C@@H]2CC3=C4CC(=O)O[C@@H](c5ccoc5)[C@]4(C)CCC3[C@@]1(C)C2=O (some centres undefined)
*A* false (0)

*Q* Outcome? CC(C)C1CCC(C(=O)N[C@@H](Cc2ccccc2)C(=O)O)CC1 (some centres undefined)
*A* false (0)

---

# Lookup of reported normalized growth keyed by entry
Assay Comment: chemical genetic growth profiling, strain panel (AID 1159580);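 also: tested at 20 µM; growth read once vehicle control cultures reached saturation at 30 °C; 1 = growth at the plate median or of vehicle wells; lower values mean less growth of the strain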
Study Conditions: S. cerevisiae deletion strains, growth OD, locus YIR030C, strain dcg1, active compounds read low
Screen size: about 5,500 compounds; about 2,000 (36%) were called active. Not shown: some 18% with an inconclusive outcome. Some of the results follow.
Give a plain numeric answer without units written out.

Some solved cases for reference:
O=C1C=C(O)c2ccccc2C1=O = 0.972
Cn1c(=O)c2c(ncn2C)n(C)c1=O = 0.999
NC(Cc1ccc(Cl)cc1)C(=O)O (stereo not given) = 1
CNC(=O)Oc1cccc2c1OC(C)(C)C2 = 0.996

Proceeding to the next compound to report its normalized growth.
The recorded normalized growth for entry CC[C@H]1OC(=O)[C@H](C)[C@@H](O[C@H]2C[C@@](C)(OC)[C@@H](O)[C@H](C)O2)[C@H](C)[C@@H](O[C@@H]2O[C@H](C)C[C@H](N(C)C)[C@H]2O)[C@](C)(O)C[C@@H](C)/C(=N/OCOCCOC)[C@H](C)[C@@H](O)[C@]1(C)O equals 0.997

---

Assay Comment: chemical genetic growth profiling, strain panel (AID 1159580);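 also: tested at 20 µM; growth read once vehicle control cultures reached saturation at 30 °C; 1 = growth at the plate median or of vehicle wells; lower values mean less growth of the strain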
Study Conditions: S. cerevisiae deletion strains, growth OD, locus YIL066C, strain RNR3, active compounds read low
Out of some 5,500 compounds screened, about 2,000 (36%) were called active. Not shown: some 18% with an inconclusive outcome. This is one part of the list.
Measure: normalized growth
Give a plain numeric answer without units written out.

NC(=NCCCCCCN=C(N)N=C(N)Nc1ccc(Cl)cc1)N=C(N)Nc1ccc(Cl)cc1 = 0.0507
N[C@@H](C(=O)N[C@@H]1C(=O)N2C(C(=O)O)=C(Cl)CS[C@H]12)c1ccccc1 = 1.03

The recorded normalized growth for entry COc1cc2c(cc1OC)C(C)NCC2 (stereo unspecified) equals 1.02
